Data credit: patent US20050004211A1

test system: DLD (DLD-1): human colon adenocarcinoma; experiment: In vitro anticancer assay (cytotoxicity), human solid tumor cells; details: DLD
metric.name: IC50 Values of Cytotoxicities, DLD (mg/L)
# number only, unit mg/L dropped from output

Recorded IC50 Values of Cytotoxicities, DLD for CCCCC#Cc1ccccc1C#Cc1ccccc1C#N , please?
8.98

// next record N#Cc1ccccc1C#C/C=C\C#CCOC1CCCCO1 (centres unmarked)
8.61

Now the compound CCCCCC#Cc1ccccc1C#Cc1ccccc1C#N
16.25

Then CCCCCCC#C/C=C\C#Cc1ccc(C(F)(F)F)cc1 ?
5.71

* * *

tested on: NCI/ADR-RES; conditions: read-out: LC50 NCI/ADR-RES; Table 4
metric.name: CC50

Fill in the blank: the reported CC50 of N#Cc1ccccc1C#CC=CC#Cc1cnccn1 is ____.
> 100 µM

Now this one: N#Cc1ccccc1C#CC=CC#Cc1ccccc1N
> 100 µM

What do we get for N#Cc1ccccc1C#CC=CC#Cc1ccccn1 ?
71 µM
